B1: TRIM43 (parent)
chain: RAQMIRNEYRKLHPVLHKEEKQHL

Variants of: B1
assay.method.text: protein stability index of a GFP-peptide fusion (GPS, HEK-293T) (PSI 1-6); higher = more stable;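 note: lentivirally expressed fusions sorted by FACS into six bins by GFP to DsRed ratio, PSI derived from sequencing read proportions per bin multiplied by bin number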
condition: c terminus: a fixed tail appended
Please use true whenever protein stability index is not below 3, and false whenever it is.

hey, is protein stability index for this one >= 3? A2T
true

Decide: is the reported value of protein stability index for E8G equal to or greater than 3?
false

Determine whether this variant has protein stability index no lower than 3: L16D
true

Could you verify whether the entry H17C shows protein stability index of no less than 3?
false

Kindly determine if protein stability index recorded for N7E is above or exactly 3.
false

In plain terms: is recorded protein stability index at least 3 for L12T ?
true

Form field: protein stability index at least 3? Entry: K18I
false

Is it the case that H17K has protein stability index reaching or exceeding 3?
true

Is it the case that R6F has protein stability index reaching or exceeding 3?
false

Determine whether measured protein stability index meets or exceeds 3 for H23V
true

hey, is protein stability index for this one >= 3? R6I
false

Textbook exercise: given the entry R10H , state whether its protein stability index is greater than or equal to 3.
true

Confirm if protein stability index reported for the variant K21S is 3 or above.
false

State whether the measured protein stability index reaches 3, counting equality as reaching it, for E19W
false

Decide: is the reported value of protein stability index for L24D equal to or greater than 3?
true

Decide: protein stability index of Y9H >= 3?
true

Hi, just wondering whether Q22T shows protein stability index of 3 or higher.
false

Confirm if protein stability index reported for the variant L24K is 3 or above.
true

Reported protein stability index at or above 3? K21G
false

API: above_or_equal(metric=protein stability index, cutoff=3) for item R1N
true

protein stability index >= 3 for H17S ?
false

# check: protein stability index of R1F is greater than or equal to 3
false

Quick check, protein stability index >= 3? E20G
false

Record E19N ; criterion: protein stability index no lower than 3. Met?
false

Does E8M have a reported protein stability index of at least 3?
false

Is reported protein stability index greater than or equal to 3 here: E20L
false

Given the entry K11H , answer whether its protein stability index meets or surpasses 3.
true

Given H23Q , state whether its protein stability index is at least 3.
true

Could you verify whether the entry E8R shows protein stability index of no less than 3?
false

Tell me whether protein stability index is at least 3 here: Y9R
true

Is protein stability index at least 3? Consider Y9D
true

Does the reported protein stability index for R1L fall at or above the 3 mark?
false

Hi team, for V15A , is the recorded protein stability index at or above 3?
true

Would you say L16W shows protein stability index at minimum 3?
false

Is the recorded value of protein stability index equal to or greater than 3 for this variant? K18S
true

Quick check: does L24Q have protein stability index greater than or equal to 3?
true

Is protein stability index at least 3? Consider E8L
false

Record M4P ; criterion: protein stability index no lower than 3. Met?
true

Given R1G , state whether its protein stability index is at least 3.
true

Is it the case that R10E has protein stability index reaching or exceeding 3?
true

Threshold query (protein stability index >= 3) on P14N
false

Could you please find out whether Y9F has protein stability index that meets 3 or exceeds it?
true

I'd appreciate it if you could say whether P14A has protein stability index at least equal to 3.
false

Item R1V with protein stability index of 3 or above?
true

Check if protein stability index >= 3 (inclusive). Item: A2R
true

Determine whether this variant has protein stability index no lower than 3: R10Q
true

Could you verify whether the entry L12H shows protein stability index of no less than 3?
true

Is the recorded value of protein stability index equal to or greater than 3 for this variant? K11T
true

Exam item: decide whether the reported protein stability index for K18F is at least 3.
false

hey, is protein stability index for this one >= 3? L12K
true

Quick check, protein stability index >= 3? R10N
true

Threshold query (protein stability index >= 3) on E19Q
true

Assess whether reported protein stability index for L24V sits at 3 or higher.
true

Hello, I need to know if R10D has measured protein stability index not below 3. Thanks!
true

Would you say L24S shows protein stability index at minimum 3?
true

Decide: is the reported value of protein stability index for Q3W equal to or greater than 3?
false

Is the recorded value of protein stability index equal to or greater than 3 for this variant? M4I
false

Could you verify whether the entry E19A shows protein stability index of no less than 3?
false

Does the reported protein stability index for L24M fall at or above the 3 mark?
true

Please indicate if the recorded protein stability index for K11D meets or exceeds 3.
true

Assess whether reported protein stability index for Q3D sits at 3 or higher.
true

Quick check, protein stability index >= 3? K11F
true

Evaluate P14C : protein stability index at minimum 3?
false

Does protein stability index meet or surpass 3 for L12N ?
true

Quick check: does L24H have protein stability index greater than or equal to 3?
true

Kindly determine if protein stability index recorded for L24W is above or exactly 3.
false

hey, is protein stability index for this one >= 3? E19I
false

Can H23M be said to have protein stability index at or above 3?
true

Evaluate E19M : protein stability index at minimum 3?
false

Hi team, for Y9P , is the recorded protein stability index at or above 3?
true

Assess whether reported protein stability index for L12Y sits at 3 or higher.
true

Quick check, protein stability index >= 3? L16T
true

Kindly determine if protein stability index recorded for I5Q is above or exactly 3.
true

Say whether L24Y shows protein stability index of 3 or more.
true

Quick check, protein stability index >= 3? H13Q
true

I'd appreciate it if you could say whether Q3N has protein stability index at least equal to 3.
true

Decide: protein stability index of H17D >= 3?
true

Does the reported protein stability index for H23G fall at or above the 3 mark?
true

Is protein stability index at least 3? Consider V15E
true

Textbook exercise: given the entry A2C , state whether its protein stability index is greater than or equal to 3.
true

Identify whether the reported protein stability index of the following variant is 3 or greater: R10Y
true
